Every entry's value here was drawn from ChEMBL document CHEMBL1157292.

System: U-937/GTB
Assay: Cytotoxicity against human U937 GTB cells after 72 hrs by fluorometric microculture cytotoxicity assay
Assay type: functional, cell-based
The following compounds are shown together with reported IC50 values.
Numeric only. Scale: µM

>>> readout_number("C=C1CC[C@H]2C(C)(C)CCC[C@]2(C)[C@H]1CC/C(C)=C/Cn1c[n+](C)c2nc[n-]/c(=N\\OC)c21")
1.03

Okay, now this compound:
q: Any idea what its IC50 is? The compound is C=C1CC[C@H]2C(C)(C)CCC[C@]2(C)[C@H]1CC/C(C)=C/Cn1c[n+](C)c2ncnc(N)c21.[Cl-]
a: 5.59

---

Test system: Bacteroides thetaiotaomicron
Assay: Antibacterial activity against Bacteroides thetaiotaomicron DSM 2255 by standard broth microdilution technique
Assay type: functional
The following molecules are shown together with reported MIC values.
Numeric only. Scale: µg/mL

Worked cases, answers included:
>>> readout_number("C=C1CC[C@H]2C(C)(C)CCC[C@]2(C)[C@H]1CC/C(C)=C/Cn1c[n+](C)c2nc[n-]/c(=N\\OC(C)(C)C)c21")
4
>>> readout_number("C=C1CC[C@H]2C(C)(C)CCC[C@]2(C)[C@H]1CC/C(C)=C/Cn1c[n+](C)c2nc[n-]/c(=N\\OC)c21")
4
>>> readout_number("C=C1CC[C@H]2C(C)(C)CCC[C@]2(C)[C@H]1CC/C(C)=C/Cn1c[n+](C)c2ncnc(N)c21.[Cl-]")
8

Okay, now this molecule:
q: Any idea what its MIC is? The molecule is Cc1ncc([N+](=O)[O-])n1CCO [METRONIDAZOLE]
a: 1

---

Test system: Bacteroides fragilis
Assay: Antibacterial activity against Bacteroides fragilis DSM 2151 by standard broth microdilution technique
Format: functional
The following compounds are shown together with reported MIC values.
Provide the measurement as a number trailed by its unit.

Worked cases, answers included:
>>> result("C=C1CC[C@H]2C(C)(C)CCC[C@]2(C)[C@H]1CC/C(C)=C/Cn1c[n+](C)c2nc[n-]/c(=N\\OC)c21")
"4 µg/mL"
>>> result("C=C1CC[C@H]2C(C)(C)CCC[C@]2(C)[C@H]1CC/C(C)=C/Cn1c[n+](C)c2ncnc(N)c21.[Cl-]")
"16 µg/mL"
>>> result("Cc1ncc([N+](=O)[O-])n1CCO")
"0.5 µg/mL"

Okay, now this compound:
q: Any idea what its MIC is? The compound is C=C1CC[C@H]2C(C)(C)CCC[C@]2(C)[C@H]1CC/C(C)=C/Cn1c[n+](C)c2nc[n-]/c(=N\OC(C)(C)C)c21
a: 4 µg/mL

---

The following compounds are shown together with reported pIC50 values.
Test: Cytotoxicity against human RPMI 8226/s cells after 72 hrs by fluorometric microculture cytotoxicity assay
Format: functional, cell-based
Conditions: RPMI8226/S
Friendly reminder that pIC50 comes from taking -log10 of the concentration in mol/L.

Worked cases, answers included:
>>> readout_number("COc1cccc2c1C(=O)c1c(O)c3c(c(O)c1C2=O)C[C@@](O)(C(=O)CO)C[C@@H]3O[C@H]1C[C@H](N)[C@H](O)[C@H](C)O1")
6.89
>>> readout_number("C=C1CC[C@H]2C(C)(C)CCC[C@]2(C)[C@H]1CC/C(C)=C/Cn1c[n+](C)c2ncnc(N)c21.[Cl-]")
5.43
>>> readout_number("CC(=O)O[C@H]1C(=O)[C@@]2(C)[C@H]([C@H](OC(=O)c3ccccc3)[C@]3(O)C[C@H](OC(=O)[C@H](O)[C@@H](NC(=O)c4ccccc4)c4ccccc4)C(C)=C1C3(C)C)[C@]1(OC(C)=O)CO[C@@H]1C[C@@H]2O")
8.15

Okay, now this compound:
q: Any idea what its pIC50 is? The compound is C=C1CC[C@H]2C(C)(C)CCC[C@]2(C)[C@H]1CC/C(C)=C/Cn1c[n+](C)c2nc[n-]/c(=N\OC)c21
a: 6.70
